Here, each record is paired with measured Monkey NPR1 Amax (% of ANP) data.
# study system: monkey NPR1 (Macaca fascicularis)
# Sequence (A0A7N9DBT9 entry or part of it): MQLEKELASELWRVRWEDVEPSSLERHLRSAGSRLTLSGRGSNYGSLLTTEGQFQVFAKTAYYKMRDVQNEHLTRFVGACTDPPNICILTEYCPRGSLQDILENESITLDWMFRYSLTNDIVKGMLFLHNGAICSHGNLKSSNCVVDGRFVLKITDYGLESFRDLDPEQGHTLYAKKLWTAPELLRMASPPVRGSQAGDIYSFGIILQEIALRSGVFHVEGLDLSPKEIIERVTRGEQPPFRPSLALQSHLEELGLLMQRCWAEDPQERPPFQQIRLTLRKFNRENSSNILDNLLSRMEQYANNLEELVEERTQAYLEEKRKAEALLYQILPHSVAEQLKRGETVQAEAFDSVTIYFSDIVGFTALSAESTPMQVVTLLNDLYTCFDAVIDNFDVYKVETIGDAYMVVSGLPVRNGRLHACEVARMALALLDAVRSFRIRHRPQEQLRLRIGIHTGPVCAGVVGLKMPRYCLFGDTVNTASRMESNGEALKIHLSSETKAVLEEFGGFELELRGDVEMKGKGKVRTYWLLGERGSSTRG
# assay procedure: Cellular cGMP production assay, monkey NPR1 expressing CHO-K1 cells (CisBio HTRF)
# Type: cell-based
# condition parameters: maximum cGMP production as percentage of the maximum cGMP produced with ANP, monkey NPR1 CHO-K1 cells

Worked examples follow.
CC[C@H]([C@H]1CC[C@H](C(=O)O)CC1)N(C)c1nc2c(c(N[C@@H](CN3CCC4CC4C3)c3cnn(C)c3)n1)C[C@H](c1ccccc1)CC2 (stereo partly drawn)	102.158 % of ANP
C[C@@H](Nc1nc2c(c(N[C@@H](CN3CCCC3)c3ccccc3)n1)C[C@H](c1ccccc1)CC2)c1ccc(C(=O)O)cc1	98.468 % of ANP

Sample CC[C@@H](Nc1nc2c(c(N[C@@H](CN3C4CCCC3CCC4)c3cnn(C(C)C)c3)n1)C[C@H](c1ccccc1)CC2)[C@H]1CC[C@H](C(=O)O)CC1 ; Monkey NPR1 Amax (% of ANP) observed: 103.231 % of ANP

Sample CC[C@@H](Nc1nc2c(c(N[C@@H](CN3C[C@H](C)C[C@H](C)C3)c3cnn(C)c3)n1)C[C@H](c1ccccc1)CC2)[C@H]1CC[C@H](C(=O)O)CC1 ; Monkey NPR1 Amax (% of ANP) observed: 102.127 % of ANP

Sample CC[C@H]([C@H]1CC[C@H](C(=O)O)CC1)N(C)c1nc2c(c(N[C@@H](CN3CCC(O)CC3)c3cnn(CC)c3)n1)C[C@H](c1ccccc1)CC2 ; Monkey NPR1 Amax (% of ANP) observed: 97.456 % of ANP

Sample CC[C@@H](Nc1nc2c(c(N[C@@H](CN3CCCCC3)c3cnn(C(C)C)c3)n1)C[C@H](c1ccccc1)CC2)[C@H]1CC[C@H](C(=O)O)CC1 ; Monkey NPR1 Amax (% of ANP) observed: 105.588 % of ANP

Reference source for all entries: patent US12129246B1
